# System: HepG2
# test_protocol: Antiproliferative activity against human HepG2 cells after 48 hrs by MTT assay
# Assay type: functional, cell-based
# condition: HepG2, 48 h
measured_endpoint: IC50

Recorded IC50, per entry:
>  <compound>
N#CC1=C(N)Oc2c(N)cc3nc4ccccc4nc3c2C12C(=O)N(Cc1cnnn1-c1c(F)cccc1F)c1ccccc12 (centres undefined)

>  <IC50>
> 50 µM

$$$$
>  <compound>
Cc1ccc(-n2nncc2CN2C(=O)C3(C(C#N)=C(N)Oc4c3c3nc5ccccc5nc3c3ccccc43)c3ccccc32)cc1C (centres undefined)

>  <IC50>
> 50 µM

$$$$
>  <compound>
Cc1cc(C)cc(-n2nncc2CN2C(=O)C3(C(C#N)=C(N)Oc4c3c3nc5ccccc5nc3c3ccccc43)c3ccccc32)c1 (centres undefined)

>  <IC50>
> 50 µM

$$$$

response.value for Cc1ccc(Cl)cc1-n1nncc1CN1C(=O)C2(C(C#N)=C(N)Oc3c2c2nc4ccccc4nc2c2ccccc32)c2ccccc21 (centres undefined) (field: IC50) = > 50 µM

====

# System: HepG2
# test_protocol: Antiproliferative activity against human HepG2 cells after 48 hrs by MTT assay
# Format: functional, cell-based
# condition: HepG2, 48 h
pIC50: −log10 of the molar value.
Listed here are molecules together with their documented pIC50.

As a guide, the following entries are already answered.
>  <molecule>
N#CC1=C(N)Oc2c(N)cc3nc4ccccc4nc3c2C12C(=O)N(Cc1cnnn1-c1cccc(Br)c1)c1ccccc12 (stereo not given)

>  <assayed_system>
HepG2

>  <pIC50>
< 4.30

$$$$
>  <molecule>
N#CC1=C(N)Oc2c(N)cc3nc4ccccc4nc3c2C12C(=O)N(Cc1cnnn1-c1cccc(C(F)(F)F)c1)c1ccccc12 (stereo not given)

>  <assayed_system>
HepG2

>  <pIC50>
4.80

$$$$
>  <molecule>
Cc1ccc(Cl)cc1-n1nncc1CN1C(=O)C2(C(C#N)=C(N)Oc3c(N)cc4nc5ccccc5nc4c32)c2ccccc21 (stereo not given)

>  <assayed_system>
HepG2

>  <pIC50>
4.76

$$$$
>  <molecule>
N#CC1=C(N)Oc2c(N)cc3nc4ccccc4nc3c2C12C(=O)N(Cc1cnnn1-c1ccc(Cl)cc1)c1ccccc12 (stereo not given)

>  <assayed_system>
HepG2

>  <pIC50>
< 4.30

$$$$
>  <molecule>
N#CC1=C(N)Oc2c(N)cc3nc4ccccc4nc3c2C12C(=O)N(Cc1cnnn1-c1ccc(F)cc1)c1ccccc12 (stereo not given)

>  <assayed_system>
HepG2

>  <pIC50>
< 4.30

$$$$

The reported value for Cc1ccccc1-n1nncc1CN1C(=O)C2(C(C#N)=C(N)Oc3c2c2nc4ccccc4nc2c2ccccc32)c2ccccc21 (stereo not given) in terms of pIC50 is < 4.30

Value of measured pIC50 for the entry CCc1cccc(CC)c1-n1nncc1CN1C(=O)C2(C(C#N)=C(N)Oc3c(N)cc4nc5ccccc5nc4c32)c2ccccc21 (stereo not given) : 4.78

# molecule N#CC1=C(N)Oc2c(c3nc4ccccc4nc3c3ccccc23)C12C(=O)N(Cc1cnnn1-c1ccc(F)c(Cl)c1)c1ccccc12 (stereo not given) ; its pIC50 = < 4.30

The molecule listed as N#CC1=C(N)Oc2c(N)cc3nc4ccccc4nc3c2C12C(=O)N(Cc1cnnn1-c1ccc(Cl)cc1[N+](=O)[O-])c1ccccc12 (stereo not given) has a reported pIC50 of < 4.30

molecule N#CC1=C(N)Oc2c(c3nc4ccccc4nc3c3ccccc23)C12C(=O)N(Cc1cnnn1-c1ccc(Cl)c(Cl)c1)c1ccccc12 (stereo not given) , pIC50 observed: < 4.30
